All figures here come from PubChem BioAssay AID1159580.

Exercise: state measured normalized growth for each of the compounds provided.
Protocol Notes: chemical genetic growth profiling, strain panel (AID 1159580);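 note: tested at 20 µM; growth read once vehicle control cultures reached saturation at 30 °C; 1 = growth at the plate median or of vehicle wells; lower values mean less growth of the strain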
Experimental Parameters: S. cerevisiae deletion strains, growth OD, locus YLR039C, strain RIC1, hits give low values
Screen size: about 5,500 compounds; about 2,000 (36%) were called active. About 18% were inconclusive and are not listed. The list shows a part of the results.
Numbers only.

The following compounds have reported results that may help.
1. N#CCC(=O)Nc1ccccn1
1.01
2. CC(C)(C)S(=O)(=O)/C(C#N)=C/N1CCCCC1
1.02
3. O=C1[C@H](CCC(O)c2ccc(F)cc2)[C@@H](c2ccc(O)cc2)N1c1ccc(F)cc1 (some centres undefined)
0.995

Hey, can you go through the list below and give me normalized growth for every item?
1. COC(=O)c1sccc1NC(=O)C1CC1
2. CN1C(C(=O)Nc2ccccn2)=C(O)c2ccccc2S1(=O)=O
3. CCOC(=O)Nc1ccsc1C(=O)OC
4. C#CCCCCCCCCCCCC(O)CC(O)COC(C)=O (centres undefined)
5. OCc1ccccc1O
6. CCCC(=O)O[C@]1(C(=O)CO)CCC2[C@@H]3CCC4=CC(=O)CC[C@]4(C)C3[C@@H](O)C[C@@]21C (some centres undefined)

**A:**
1. 1.01
2. 0.984
3. 0.983
4. 0.976
5. 0.988
6. 0.988

Provide reported normalized growth for each item, in the same order as listed.
1. O=C(O)CN1C(=O)c2cccc3cccc(c23)C1=O
2. Cc1cc(-c2ccccc2)nnc1NCCN1CCOCC1
3. Nc1cc2c(cc1Cl)C(=O)NC2=O

**A:**
1. 1
2. 0.999
3. 0.994

Please go through the list and note normalized growth for each compound.
1. C[N+]1(C)C2CC(OC(=O)[C@@H](CO)c3ccccc3)CC1C1OC12 (some centres undefined)
2. C=C1CCC(=O)C(C)CCC2C1CC2(C)C (centres undefined)

**A:**
1.02
1.01

###

Protocol Notes: chemical genetic growth profiling, strain panel (AID 1159580);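 note: tested at 20 µM; growth read once vehicle control cultures reached saturation at 30 °C; 1 = growth at the plate median or of vehicle wells; lower values mean less growth of the strain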
Experimental Parameters: S. cerevisiae deletion strains, growth OD, locus YDR363W, strain ESC2, hits give low values
Out of some 5,500 compounds screened, about 2,000 (36%) were called active. Roughly 18% stayed inconclusive and do not appear here. Some of the results follow.
Quantity Name: normalized growth
Give bare numbers.

Examples with answers:
1. COC(=O)[C@@H](N)Cc1ccc(O)c(O)c1
1
2. Cc1cccc(C)c1NC1=NCCCS1
1.02
3. COc1nc(C)nc(Cl)c1NC1=NCCN1
1.01
4. CCCCNc1ccc(C(=O)OCCN(C)C)cc1
1.01
5. CC1OC1P(=O)(O)O (centres undefined)
0.974
6. CCCCCCCCCCCCCC(=O)O[C@@H]1[C@@H](C)[C@@]2(O)[C@@H](C=C(CO)C[C@@]3(O)C(=O)C(C)=C[C@@H]23)C2C(C)(C)[C@@]21OC(C)=O (some centres undefined)
0.999

Provide normalized growth values for the following items, in order.
1. C[N+]1(C)C2CC(OC(=O)[C@H](CO)c3ccccc3)CC1C1OC12 (some centres undefined)
2. CC1(C)NC(=O)N(c2ccc([N+](=O)[O-])c(C(F)(F)F)c2)C1=O

**A:**
1. 0.998
2. 0.975

For each listed entry, give its normalized growth.
1. NC(=O)c1cccc(N)c1
2. Cc1ccc(Cl)c(Nc2ccccc2C(=O)O)c1Cl
3. CCCN(CCC)C1CCc2cccc(O)c2C1 (centres undefined)
4. CC(/C=C/c1cccc(Oc2ccc(F)cc2)c1)N(O)C(N)=O (centres undefined)
5. C[C@@H](CN1CCC(Cc2ccccc2)CC1)[C@@H](O)c1ccc(O)cc1
6. O=C(O)Cc1c[nH]c2ccc(O)cc12
7. CO/N=C(/C(=O)N[C@@H]1C(=O)N2C(C(=O)O)=C(COC(C)=O)CS[C@H]12)c1csc(N)n1

**A:**
1
0.985
1.01
0.987
1.01
1
1.01

Dear colleague, could you please provide normalized growth for the compounds listed below?
1. O=C(O)c1cc2cc(Cc3cccnc3)ccc2o1
2. CCCCC#Cc1nc(N)c2ncn([C@@H]3O[C@H](C(=O)NCC)[C@@H](O)[C@H]3O)c2n1
3. OCc1cnc[nH]1
4. CC[C@H](C)C(=O)O[C@H]1CCC=C2C=C[C@H](C)[C@H](CC[C@@H]3C[C@@H](O)CC(=O)O3)[C@H]21
5. N=C1Sc2ccccc2C2=NCCCN12
6. Cc1c(CC(C)(C)C(=O)O)n(Cc2ccc(Cl)cc2)c2ccc(F)cc12
7. Clc1ccc(Cn2c(CN3CCCC3)nc3ccccc32)cc1
8. CCN(CC)CCOC(=O)c1ccc(N)cc1

**A:**
1. 1.01
2. 1
3. 1.01
4. 1.02
5. 1.01
6. 0.986
7. 0.999
8. 1.01

**Q:** Any idea what its normalized growth is? The compound is Cc1ccc([N+](=O)[O-])cc1S(=O)(=O)N(C)C
**A:** 0.972
